Catalogue of AC50 values
- target system: Paired box protein Pax-8 (Homo sapiens)
- Sequence (Q06710 whole entry): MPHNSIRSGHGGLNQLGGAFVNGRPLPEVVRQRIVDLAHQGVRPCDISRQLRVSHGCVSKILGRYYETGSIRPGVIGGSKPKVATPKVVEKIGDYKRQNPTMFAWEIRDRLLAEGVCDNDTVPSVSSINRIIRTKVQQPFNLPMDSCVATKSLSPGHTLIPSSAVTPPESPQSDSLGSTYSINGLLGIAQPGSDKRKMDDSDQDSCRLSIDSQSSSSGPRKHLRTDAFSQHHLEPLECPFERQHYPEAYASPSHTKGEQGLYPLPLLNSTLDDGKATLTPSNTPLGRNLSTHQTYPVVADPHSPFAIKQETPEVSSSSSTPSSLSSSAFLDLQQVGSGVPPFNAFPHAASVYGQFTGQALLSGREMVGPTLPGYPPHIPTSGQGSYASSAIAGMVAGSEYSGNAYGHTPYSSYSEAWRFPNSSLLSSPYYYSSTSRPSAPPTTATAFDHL
- measurement description: PAX8 transcriptional activity inhibition in RMG-I – RMG-I cells, luciferase, cherry-pick, dose response (AID 687027);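 note: luciferase reporter driven by Pax8 target thyroperoxidase promoter measured by SteadyGlo luminescence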
- Format: functional, cell-based
The source made the active and inactive calls.
measured parameter: AC50

{"columns": ["item smiles", "value observed"],
 "data": [
  ["O=C(C[C@H]1C[C@@H]2c3cc(NS(=O)(=O)c4ccc(F)cc4)ccc3O[C@@H]2[C@@H](CO)O1)N1CCc2ccccc2C1", "3.86 µM (active)"],
  ["COc1ccc(NC(=O)Nc2ccc3c(c2)C(=O)N([C@H](C)CO)C[C@H](C)[C@H](CN(C)Cc2ccc(C(F)(F)F)cc2)OCCCC[C@H](C)O3)cc1", "9.32 µM (active)"],
  ["COc1ccccc1C(=O)Nc1ccc2c(c1)C(=O)N(C)[C@@H]1CC[C@@H](CC(=O)NCc3ccc(Cl)c(Cl)c3)O[C@H]1CO2", "1.57 µM (active)"],
  ["C[C@@H]1CN([C@H](C)CO)S(=O)(=O)c2ccc(C#CC3CCCC3)cc2O[C@H]1CN(C)Cc1cccnc1", "12.5 µM (active)"],
  ["Cc1ccc(-c2ccc([C@H]3[C@H](CO)N4CCCCN(S(=O)(=O)c5cccc(C)c5)C[C@@H]34)cc2)cc1", "8.11 µM (active)"],
  ["CCOC(=O)c1cnn(CCOC(=O)c2cccc(F)c2)c1NC(=O)c1cccc(F)c1", "20 µM (active)"],
  ["O=C(CCl)/N=c1\\sccn1Cc1ccc(Cl)cc1Cl", "1.36 µM (active)"],
  ["COc1ccc(C(=O)c2ccc(Cl)c([N+](=O)[O-])c2)cc1", "7.17 µM (active)"],
  ["O=C(OCC(=O)N1CCN(C(=O)c2ccco2)CC1)c1cccc(S(=O)(=O)N2CCc3ccccc32)c1", "1.38 µM (active)"],
  ["COc1ccc(S(=O)(=O)Nc2ccc3c(c2)C(=O)N([C@@H](C)CO)C[C@H](C)[C@@H](CN(C)C(=O)Nc2ccc(F)cc2)OCCCC[C@H](C)O3)cc1", "9.96 µM (active)"],
  ["Cc1cc(C)c2nc(SCC(=O)N3CC(=O)Nc4ccccc43)c(C#N)cc2c1", "1.25 µM (active)"]
]}

* * *

- measurement description: alpha-synuclein stem-loop luciferase translation blockers – H4 neuroglioma cells, luminescence, confirmation (AID 1988)
- Type: functional, cell-based
Where a name gives a salt, the structure may show the parent alone. Calls of active or inactive are those of the source.

{"columns": ["molecule", "EC50"],
 "data": [
  ["COC(=O)c1nn(-c2ccccc2)c(-c2ccccc2)c1C(=O)c1ccccc1", "> 120 µM (not active)"],
  ["COc1ccc2c3c1O[C@H]1C[C@@H](O)C=C[C@@]31CCN(C)C2 [GALANTAMINE HYDROBROMIDE]", "11.1 µM (active)"],
  ["O=C1c2ccc3c4c(ccc(c24)C(=O)N1c1ccc2ccccc2c1)CC3", "119 µM (active)"],
  ["Cc1cc(C)c2nc(SCC(=O)N3CC(=O)Nc4ccccc43)c(C#N)cc2c1", "< 0.1 µM (active)"]
]}

* * *

- target system: Induced myeloid leukemia cell differentiation protein Mcl-1 (Homo sapiens)
- Sequence (Q07820 whole entry): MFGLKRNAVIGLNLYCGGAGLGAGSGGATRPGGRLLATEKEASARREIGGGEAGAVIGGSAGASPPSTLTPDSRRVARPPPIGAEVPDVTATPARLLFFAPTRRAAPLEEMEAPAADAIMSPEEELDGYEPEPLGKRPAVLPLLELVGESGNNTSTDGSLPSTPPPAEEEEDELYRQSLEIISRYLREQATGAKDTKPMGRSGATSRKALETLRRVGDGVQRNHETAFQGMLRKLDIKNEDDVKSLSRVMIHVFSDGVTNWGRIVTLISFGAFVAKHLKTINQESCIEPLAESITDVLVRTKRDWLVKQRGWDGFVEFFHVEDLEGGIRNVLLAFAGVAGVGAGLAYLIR
- Type: functional
Calls of active or inactive are those of the source.
measured parameter: IC50

{"columns": ["molecule", "target system", "value observed"],
 "data": [
  ["CC1CCCCC12NC(=O)N(CC(=O)Nc1sc3c(c1C(N)=O)CCC3)C2=O (stereo unspecified)", "Induced myeloid leukemia cell differentiation protein Mcl-1 (Homo sapiens)", "3.5 µM (active)"],
  ["CCOC(=O)c1cc(-c2ccc(/C=C3/C(=O)NC(=O)C(C#N)=C3C)o2)ccc1Cl", "Induced myeloid leukemia cell differentiation protein Mcl-1 (Homo sapiens)", "0.752 µM (active)"],
  ["CC(C)c1ccc(S(=O)(=O)/N=C2/C=CC(=O)c3ccccc32)cc1", "Induced myeloid leukemia cell differentiation protein Mcl-1 (Homo sapiens)", "3.28 µM (active)"],
  ["COc1ccc(NC(C)C(=O)Nc2ccc(C#N)cc2)cc1Cl (stereo unspecified)", "Induced myeloid leukemia cell differentiation protein Mcl-1 (Homo sapiens)", "35.9 µM (not active)"],
  ["CC(C)c1ccc(S(=O)(=O)/N=C2/C=C(Sc3nc[nH]n3)C(=O)c3ccccc32)cc1", "Induced myeloid leukemia cell differentiation protein Mcl-1 (Homo sapiens)", "1.35 µM (active)"],
  ["CC(=O)Nc1sc(N/N=C/c2ccc(O)cc2)nc1-c1ccc(C)cc1", "Induced myeloid leukemia cell differentiation protein Mcl-1 (Homo sapiens)", "2.84 µM (active)"]
]}

Where these numbers come from: ChEMBL document CHEMBL1201862
